Target: recombinant human alpha-synuclein (ASN) aggregate (Homo sapiens, UniProt P37840)
Construct: purchased Sigma-Aldrich
Assay: Fluorescence excitation and emission spectra of dye in the presence of aggregated alpha-synuclein
Format: binding
Conditions: 1 μM aggregated ASN, 50 mM Tris-HCl, pH 7.8, 10 μM dye
quantity name: In the presence of aggregate: Excitation wavelength

compound	endpoint value
CCN(CC)c1ccc(/C=C/c2cc[n+](CCOCC[n+]3ccc(/C=C/c4ccc(N(CC)CC)cc4)cc3)cc2)cc1.[I-].[I-]	534 nm
CCN(CC)c1ccc(/C=C/c2cc[n+](Cc3ccccc3C[n+]3ccc(/C=C/c4ccc(N(CC)CC)cc4)cc3)cc2)cc1.[Br-].[Br-]	553 nm
Cc1ccc2c(c1)sc(-c1ccc(N(C)C)cc1)[n+]2C.[Cl-] [Thioflavin-T, Thioflavin T, reference compound]	447 nm

----------
System: goat-anti-mouse IgG aggregate
Test: Fluorescence enhancement (aggregate/native IgG) in the presence of excipients
Type: binding
Conditions: Trehalose, 100 mM; 2.8 μM IgG, 0.625 μM dye
The entries below come with measured Fluorescence enhancement (aggregate/native IgG) values attached.
quantity name: Fluorescence enhancement (aggregate/native IgG) (fold)

molecule	endpoint value
CCN(CC)c1ccc(/C=C/c2cc[n+](CCCCCCCCCC[n+]3ccc(/C=C/c4ccc(N(CC)CC)cc4)c(C)c3)cc2C)cc1	14.0
Cc1ccc2c(c1)sc(-c1ccc(N(C)C)cc1)[n+]2C.[Cl-] [Thioflavin-T, Thioflavin T, reference compound]	2.2
Cc1c[n+](CCCCCCCCCC[n+]2ccc(/C=C/c3ccc(N(C)C)cc3)c(C)c2)ccc1/C=C/c1ccc(N(C)C)cc1	18.9
CN(C)c1ccc(/C=C/c2cc[n+](CCCCCC[n+]3ccc(/C=C/c4ccc(N(C)C)cc4)cc3)cc2)cc1.CS(=O)(=O)[O-].CS(=O)(=O)[O-]	17.8

----------
The entries below come with measured Fluorescence enhancement (aggregate/native IgG) values attached.
Tested on: goat-anti-mouse IgG aggregate
Experiment: Fluorescence enhancement (aggregate/native IgG) in the presence of excipients
Assay type: binding
Conditions: Arginine, 200 mM; 2.8 μM IgG, 0.625 μM dye
quantity name: Fluorescence enhancement (aggregate/native IgG) (fold)

molecule	tgt	endpoint value
CCN(CC)c1ccc(/C=C/c2cc[n+](CCCCCCCCCC[n+]3ccc(/C=C/c4ccc(N(CC)CC)cc4)c(C)c3)cc2C)cc1 [Yat 2150]	goat-anti-mouse IgG aggregate	14.4
CN(C)c1ccc(/C=C/c2cc[n+](CCCCCC[n+]3ccc(/C=C/c4ccc(N(C)C)cc4)cc3)cc2)cc1.CS(=O)(=O)[O-].CS(=O)(=O)[O-] [Dye S25]	goat-anti-mouse IgG aggregate	14.8
Cc1ccc2c(c1)sc(-c1ccc(N(C)C)cc1)[n+]2C.[Cl-] [Thioflavin-T, Thioflavin T, reference compound]	goat-anti-mouse IgG aggregate	1.4
Cc1c[n+](CCCCCCCCCC[n+]2ccc(/C=C/c3ccc(N(C)C)cc3)c(C)c2)ccc1/C=C/c1ccc(N(C)C)cc1 [TOL3]	goat-anti-mouse IgG aggregate	18.6

----------
System: goat-anti-mouse IgG aggregate
Assay: Fluorescence enhancement (aggregate/native IgG) in the presence of excipients
Assay type: binding
Conditions: Arginine, 500 mM; 2.8 μM IgG, 0.625 μM dye
The entries below come with measured Fluorescence enhancement (aggregate/native IgG) values attached.
quantity name: Fluorescence enhancement (aggregate/native IgG)

molecule	endpoint value
Cc1ccc2c(c1)sc(-c1ccc(N(C)C)cc1)[n+]2C.[Cl-] [Thioflavin-T, Thioflavin T, reference compound]	2.0 fold
CCN(CC)c1ccc(/C=C/c2cc[n+](CCCCCCCCCC[n+]3ccc(/C=C/c4ccc(N(CC)CC)cc4)c(C)c3)cc2C)cc1 [Yat 2150]	14.3 fold
CN(C)c1ccc(/C=C/c2cc[n+](CCCCCC[n+]3ccc(/C=C/c4ccc(N(C)C)cc4)cc3)cc2)cc1.CS(=O)(=O)[O-].CS(=O)(=O)[O-] [Dye S25]	13.5 fold
Cc1c[n+](CCCCCCCCCC[n+]2ccc(/C=C/c3ccc(N(C)C)cc3)c(C)c2)ccc1/C=C/c1ccc(N(C)C)cc1 [TOL3]	17.6 fold

----------
Target: recombinant human alpha-synuclein (ASN) aggregate (Homo sapiens, UniProt P37840)
Construct: purchased Sigma-Aldrich
Experiment: Fluorescence excitation and emission spectra of dye in the presence of aggregated alpha-synuclein
Type: binding
Details: 1 μM aggregated ASN, 50 mM Tris-HCl, pH 7.8, 10 μM dye
quantity name: In the presence of aggregate: Emission wavelength (nm)

smiles string	units symbol	endpoint value
CN(C)c1ccc(/C=C/c2cc[n+](Cc3ccccc3C[n+]3ccc(/C=C/c4ccc(N(C)C)cc4)cc3)cc2)cc1.[Br-].[Br-]	nm	623
CN(C)c1ccc(/C=C/c2cc[n+](CCCCCC[n+]3ccc(/C=C/c4ccc(N(C)C)cc4)cc3)cc2)cc1.CS(=O)(=O)[O-].CS(=O)(=O)[O-]	nm	607
CCN(CC)c1ccc(/C=C/c2cc[n+](CCCCCCCCCC[n+]3ccc(/C=C/c4ccc(N(CC)CC)cc4)c(C)c3)cc2C)cc1	nm	610

----------
Test system: goat-anti-mouse IgG aggregate
Experiment: Fluorescence enhancement (aggregate/native IgG) in the presence of excipients
Type: binding
Settings: X100, 0.01%; 2.8 μM IgG, 0.625 μM dye
quantity name: Fluorescence enhancement (aggregate/native IgG)

molecule	endpoint value
CCN(CC)c1ccc(/C=C/c2cc[n+](CCCCCCCCCC[n+]3ccc(/C=C/c4ccc(N(CC)CC)cc4)c(C)c3)cc2C)cc1	4.1 fold
Cc1c[n+](CCCCCCCCCC[n+]2ccc(/C=C/c3ccc(N(C)C)cc3)c(C)c2)ccc1/C=C/c1ccc(N(C)C)cc1	6.2 fold
Cc1ccc2c(c1)sc(-c1ccc(N(C)C)cc1)[n+]2C.[Cl-] [Thioflavin-T, Thioflavin T, reference compound]	5.3 fold
CN(C)c1ccc(/C=C/c2cc[n+](CCCCCC[n+]3ccc(/C=C/c4ccc(N(C)C)cc4)cc3)cc2)cc1.CS(=O)(=O)[O-].CS(=O)(=O)[O-]	19.2 fold

----------
Assay: Fluorescence excitation and emission spectra of dye freely dissolved in buffer
Assay type: physicochemical
Settings: 50 mM Tris-HCl, pH 7.8, 10 μM dye, room temperature
// assign T if Dye freely dissolved in buffer: Emission wavelength falls strictly below 600 nm, else F (ties count as F)

compound	label class
Cc1ccc2c(c1)sc(-c1ccc(N(C)C)cc1)[n+]2C.[Cl-] [Thioflavin-T, Thioflavin T, reference compound]	T
CCN(CC)c1ccc(/C=C/c2cc[n+](CCCC[n+]3ccc(/C=C/c4ccc(N(CC)CC)cc4)cc3)cc2)cc1.[I-].[I-]	F

----------
Target: recombinant human alpha-synuclein (ASN) aggregate (Homo sapiens, UniProt P37840)
Construct: purchased Sigma-Aldrich
Experiment: Fluorescence excitation and emission spectra of dye in the presence of aggregated alpha-synuclein
Format: binding
Conditions: 1 μM aggregated ASN, 50 mM Tris-HCl, pH 7.8, 10 μM dye
The entries below come with measured In the presence of aggregate: Emission wavelength values attached.
quantity name: In the presence of aggregate: Emission wavelength (nm)

molecule	endpoint value
Cc1ccc2c(c1)sc(-c1ccc(N(C)C)cc1)[n+]2C.[Cl-] [Thioflavin-T, Thioflavin T, reference compound]	480
CCN(CC)c1ccc(/C=C/c2cc[n+](Cc3ccccc3C[n+]3ccc(/C=C/c4ccc(N(CC)CC)cc4)cc3)cc2)cc1.[Br-].[Br-] [Yat 2148]	625
CCN(CC)c1ccc(/C=C/c2cc[n+](CCOCC[n+]3ccc(/C=C/c4ccc(N(CC)CC)cc4)cc3)cc2)cc1.[I-].[I-] [Yat 2149]	617
CCN(CC)c1ccc(/C=C/c2cc[n+](CCCC[n+]3ccc(/C=C/c4ccc(N(CC)CC)cc4)cc3)cc2)cc1.[I-].[I-] [Yat 2134]	613
Cc1c[n+](CCCCCCCCCC[n+]2ccc(/C=C/c3ccc(N(C)C)cc3)c(C)c2)ccc1/C=C/c1ccc(N(C)C)cc1 [TOL3]	603

----------
The entries below come with measured Fluorescence enhancement (aggregate/native IgG) values attached.
Tested on: goat-anti-mouse IgG aggregate
Experiment: Fluorescence enhancement (aggregate/native IgG) in the presence of excipients
Format: binding
Conditions: Trehalose, 300 mM; 2.8 μM IgG, 0.625 μM dye
quantity name: Fluorescence enhancement (aggregate/native IgG) (fold)

molecule	endpoint value
Cc1ccc2c(c1)sc(-c1ccc(N(C)C)cc1)[n+]2C.[Cl-] [Thioflavin-T, Thioflavin T, reference compound]	0.2
CCN(CC)c1ccc(/C=C/c2cc[n+](CCCCCCCCCC[n+]3ccc(/C=C/c4ccc(N(CC)CC)cc4)c(C)c3)cc2C)cc1	19.4
Cc1c[n+](CCCCCCCCCC[n+]2ccc(/C=C/c3ccc(N(C)C)cc3)c(C)c2)ccc1/C=C/c1ccc(N(C)C)cc1	20.1
CN(C)c1ccc(/C=C/c2cc[n+](CCCCCC[n+]3ccc(/C=C/c4ccc(N(C)C)cc4)cc3)cc2)cc1.CS(=O)(=O)[O-].CS(=O)(=O)[O-]	32.1
